Molecular target: T1, C-terminal RRM domain of Pla1 (Pla1RRM, residues 352-566), purified (S. pombe, UniProt Q10295 352-566)
T1 construct: canonical poly(A) polymerase Pla1, S. pombe, C-terminal RRM domain, residues 352-566; also called Pla1 CTD; source: E. coli BL21 (DE3) Rosetta2, purified (His-Trap, TEV cleavage, Resource Q, Superdex 200); not shown: His6, N-terminal, cleaved
T1 sequence (looked up): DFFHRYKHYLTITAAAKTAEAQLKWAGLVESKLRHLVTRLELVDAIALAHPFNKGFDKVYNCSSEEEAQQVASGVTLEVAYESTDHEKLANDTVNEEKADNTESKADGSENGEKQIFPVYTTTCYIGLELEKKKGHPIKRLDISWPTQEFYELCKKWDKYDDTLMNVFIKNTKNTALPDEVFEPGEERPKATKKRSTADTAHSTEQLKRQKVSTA
Assay: ITC; MicroCal PEAQ-ITC, 25 °C, 20 mM HEPES pH 7.5, 150 mM NaCl, 2 mM BME; 40-50 µM protein in the cell, 400-500 µM ligand in the syringe; one-binding site model
Details: both partners purified
measured attribute: Kd (µM)

binder="ISLPLLKQDDWLSSSKPFGSSTPNVVIEFDSDDDG (domain or fragment, S. pombe, UniProt Q9UTR8 288-322, looked up, source: E. coli BL21 (DE3), purified (His-Trap, TEV cleavage, second IMAC, Superdex 75); not shown: GB1, N-terminal, cleaved; His6, C-terminal, kept) [Red1 residues 288-322, purified]" result_value=7.9
binder="Red1 residues 288-345 (Pla1 interaction region), purified (domain or fragment, S. pombe, UniProt Q9UTR8 288-345, looked up, source: E. coli BL21 (DE3), purified (His-Trap, TEV cleavage, second IMAC, Superdex 75); not shown: GB1, N-terminal, cleaved; His6, C-terminal, kept) ISLPLLKQDDWLSSSKPFGSSTPNVVIEFDSDDDGDDFSNSKIEQSNLEKPPSNSENG" result_value=1.4
